assay: Biodistribution after day 6 in mouse tumor; format: ADME, organism-based
observable: concentration at 6 day (ng/g)
Use ng/g as the unit, but write only the number.

{"columns": ["compound", "concentration at 6 day [ng/g]"],
 "data": [
  ["CCc1c(CC)c2cc3nc(cc4[nH]c(c(C)c4CC)c4[nH]c(cc5nc(cc1[nH]2)C(CCC(=O)NC1C(O)OC(CO)C(O)C1O)=C5C)c(CC)c4C)C(C)=C3CCC(=O)NC1C(O)OC(CO)C(O)C1O (stereo unspecified)", 330000],
  ["C=CC1=C(C)c2cc3nc(cc4[nH]c(cc5[nH]c(cc1n2)c(C)c5CCC(=O)NC1C(O)OC(CO)C(O)C1O)c(CCC(=O)NC1C(O)OC(CO)C(O)C1O)c4C)C(C=C)=C3C (stereo unspecified)", 260000],
  ["CCC1=C(CC)c2cc3[nH]c(cc4[nH]c(c(C)c4CC)c4[nH]c(cc5nc(cc1n2)C(CCC(=O)NCCOCCOCCN)=C5C)c(CC)c4C)c(C)c3CCC(=O)NCCOCCOCCN", 51000],
  ["CCc1c(CC)c2cc3nc(cc4[nH]c(c(C)c4CC)c4[nH]c(cc5nc(cc1[nH]2)C(CCC(=O)NCCOCCOCCO)=C5C)c(CC)c4C)C(C)=C3CCC(=O)NCCOCCOCCO", 180000]
]}

Task: Field request: concentration at 6 day | item: `CCc1c(CC)c2cc3nc(cc4[nH]c(c(C)c4CC)c4[nH]c(cc5nc(cc1[nH]2)C(CCC(=O)N(CCO)CCO)=C5C)c(CC)c4C)C(C)=C3CCC(=O)N(CCO)CCO`
Result: 130000

Task: Field request: concentration at 6 day | item: `CCc1c(CC)c2cc3nc(cc4[nH]c(c(C)c4CC)c4[nH]c(cc5nc(cc1[nH]2)C(CCC(=O)NCCN(CCN)CCN)=C5C)c(CC)c4C)C(C)=C3CCC(=O)NCCN(CCN)CCN`
Result: 49000
